- Test system: SF-539 CNS
- Assay comment: NCI-60 one-dose screen, 48 h (100 = growth as untreated, 0 = no growth, -100 = all killed)
- Cond: 10 µM unless noted
The panel holds about 83,000 compounds, 20% with a hit somewhere; the sample as a whole holds those more often. Calls of active or inactive are those of the source. Rule for the calls: active = growth percent below 10; inactive = the rest.
Catalogue of compounds with associated growth

{"columns": ["Compound", "growth"],
 "data": [
  ["CCN(CC)CC(=O)Nc1c(C)cc(C(=O)NN)cc1C", "100% (inactive)"],
  ["CC1OC(n2c3ccccc3c3c4c(c5c6ccccc6[nH]c5c32)C(=O)N(CCN[C@H]2CCC[C@@H]2N)C4=O)CC(O)C1O (stereo partly specified)", "35.3% (inactive)"],
  ["CC(C)[C@@H]1C=C2CC[C@H]3[C@](C)(CN)CCC[C@]3(C)[C@H]2CC1", "102% (inactive)"],
  ["O=C1/C(=C/c2ccccc2)SC(=Nc2ccccc2)N1Nc1ccccc1", "5.85% (active)"],
  ["N=C(N)c1ccc(NCCNc2ccc(C(=N)N)cc2)cc1", "84.7% (inactive)"],
  ["O=c1nc(-c2ccccc2)c2cc(-c3ccc(N4CCOCC4)cc3)ccc2[nH]1", "94.9% (inactive)"],
  ["O=C(N/N=C/c1ccc([N+](=O)[O-])cc1)c1ccccc1Nc1ccnc(C(F)(F)F)c1", "84.3% (inactive)"],
  ["O=S1(=O)NCCCN1CCNc1nccc(-c2c(-c3cccc(O)c3)nc3sccn23)n1", "70.3% (inactive)"],
  ["CCCCCCCCCCCCNC(=O)N[C@H](C(=O)N[C@H]1/C=C/CCNC(=O)/C=C/[C@H](C)NC1=O)C(C)C", "-49.4% (active)"],
  ["COc1cc(C)c(Cl)cc1C1=NN(c2ccc(S(N)(=O)=O)cc2)C(/C=C/c2ccccc2)C1 (stereo unspecified)", "103% (inactive)"],
  ["C[N+](C)(C)CCCCCCCCCC[N+](C)(C)C", "119% (inactive)"],
  ["COc1ccc2nc3ccccc3c(NCc3ccc(C)cc3)c2c1", "10.7% (inactive)"],
  ["CCOC(=O)C1C(=O)C=C(c2cc(OC)c(OC)c(OC)c2)CC1c1sc(N(C)Cc2ccccc2)nc1Cl (stereo unspecified)", "95.6% (inactive)"],
  ["CCN1C(=O)N(CC)C2C1NN=c1s/c(=C\\c3ccc(Br)cc3)c(=O)n12 (stereo unspecified)", "-5.08% (active)"],
  ["CCN(CC)CC(=O)Nc1c(C)ccc(N)c1C", "99.6% (inactive)"],
  ["Nc1c(C(=O)Nc2ccccc2)sc2nc3c(cc12)C(=O)CCC3", "0.845% (active)"],
  ["CCCCCCCCCCCCCC", "109% (inactive)"],
  ["CC(=O)O[C@H]1CC[C@]2(C)[C@H]3CC=C4[C@@H]5CC(C)(C)CC[C@]5(C(=O)OCC(COC(=O)C(Cl)Cl)(COC(=O)C(Cl)Cl)NC(=O)C(Cl)Cl)CC[C@@]4(C)[C@]3(C)CC[C@H]2C1(C)C", "86.8% (inactive)"],
  ["COc1ccc(-c2nc(SCCC(C)C)nc(Nc3ccc(C(=O)O)cc3)c2C#N)cc1", "91.3% (inactive)"],
  ["COc1ccc(C2=NNC(c3ccc(Oc4nc5c(c(=O)n(C)c(=O)n5C)n4C)c(OC)c3)C2)cc1 (stereo unspecified)", "97.8% (inactive)"],
  ["C[Si](C)(C)C(c1ccccc1)c1ccccc1", "111% (inactive)"],
  ["O=C(CC(=O)c1cccc(Cl)c1)c1cccc(Cl)c1", "41.4% (inactive)"],
  ["O=C(c1ccccc1)C1OC1C(=O)c1ccccc1 (stereo unspecified)", "24.5% (inactive)"],
  ["CC1=C(/C=C/C(C)=C/C=C(C(=O)O)\\C(C)=C\\C(=O)O)C(C)(C)CCC1", "93.6% (inactive)"],
  ["Cc1ccc2c(C)c3c(ccc4ccccc43)c[n+]2c1", "72.8% (inactive)"],
  ["COC(=O)C(Br)(C(=O)OC)C(Br)C(Br)C(Br)c1ccccc1 (stereo unspecified)", "26.6% (inactive)"],
  ["O=C(N/N=C/c1ccccc1O)c1ccncc1", "70.8% (inactive)"],
  ["COc1nccc2c(Sc3ccccc3)nc(N)nc12", "119% (inactive)"],
  ["c1csc(-c2cnc3nonc3n2)c1", "96.8% (inactive)"],
  ["O=C(Nc1ccc(-n2ccc3c(NC(=O)c4ccccc4)nccc32)cc1)c1ccc(N2CCOCC2)c(C(F)(F)F)c1", "22.6% (inactive)"],
  ["CN(C)c1nc(-c2cccs2)n2nc(-c3ccco3)cc2n1", "93.6% (inactive)"],
  ["CCN1C(=O)N(CC)C2C1N=C(SC)N2/N=C/C=C/c1ccccc1OC (stereo unspecified)", "-4.87% (active)"],
  ["CN1C(=O)C(C(=O)/C=C/c2ccccc2C(=O)O)C(=O)N(C)C1=O", "104% (inactive)"],
  ["Clc1ccc(-c2nc(-c3cccs3)no2)cc1", "102% (inactive)"],
  ["COc1cc(C2CC(c3ccc(Cl)cc3)=NN2C(C)=O)ccc1Oc1nc2c(c(=O)n(C)c(=O)n2C)n1C (stereo unspecified)", "102% (inactive)"],
  ["CCc1onc(-c2ccc(OC)cc2)c1-c1ccccc1OCCN(CC)CC", "90.2% (inactive)"],
  ["COc1ccc(N=C2CSc3nnc(-c4cc(F)c(Cl)cc4Cl)n3N2)cc1", "-67.3% (active)"],
  ["CCNC(=O)c1ccc2c(c1)nc(-c1ccc(Cl)cc1)n2-c1cc(C(C)(C)C)[nH]n1", "32.6% (inactive)"],
  ["C#C[C@]1(O)CC[C@H]2[C@@H]3CC=C4c5sc(-c6cccc(Br)c6)nc5CC[C@]4(C)[C@H]3CC[C@@]21C", "37.6% (inactive)"],
  ["CCCCCCCCCCCCCCCC1=NC(C)(C)CN1C(C)C", "-79.6% (active)"],
  ["O=C1C(Cl)=C(Nc2cccc3ccccc23)C(=O)c2ccccc21", "107% (inactive)"]
]}

====

- Test system: MDA-MB-435 melanoma
- Assay comment: NCI-60 one-dose screen, 48 h (100 = growth as untreated, 0 = no growth, -100 = all killed)
- Cond: 10 µM unless noted
About 83,000 compounds went through this panel and 20% of them were active in at least one assay; those are over-represented in the sample as a whole.
Catalogue of molecules with associated growth
Measured metric: growth (%)

{"columns": ["Molecule", "Measured metric", "Result number"],
 "data": [
  ["O=c1c2cc(Cl)ccc2oc2ccc(OCCCCCN3CCCCCC3)cc12", "growth", 80.8],
  ["O=C(CCCN1CCC(O)(c2ccc(Br)cc2)CC1)c1ccc(F)cc1", "growth", 65.4],
  ["Cc1cc(-c2ccccc2)on1", "growth", 107],
  ["Clc1cc2nc(-c3ccccc3)c(-c3ccccc3)nc2cc1Cl", "growth", 108],
  ["CCN(CC)Cc1cc(Nc2ccnc3ccc(OC)cc23)ccc1O", "growth", 47.6],
  ["CCCCCCCOc1cccc(/C=C2\\N=C3SCCCN3C2=O)c1", "growth", 100],
  ["CCOC(=O)C1OC2(CCCC2)OC1C(=O)OCC (stereo unspecified)", "growth", 112],
  ["CCN1C(=O)N(CC)C2C1NC(=O)N2/N=C/C=C/c1ccccc1 (stereo unspecified)", "growth", -2.78],
  ["Cc1ccc2c(C)c3c(ccc4ccccc43)c[n+]2c1", "growth", 83.2],
  ["Clc1ccc(-c2cnc3c(-c4ccnc(N5CCNCC5)c4)cnn3c2)cc1", "growth", -51.1],
  ["Cc1cc([N+](=O)[O-])c(C)cc1N", "growth", 110],
  ["COc1cc(C2CC(c3ccc(C)cc3)=NN2C=O)ccc1Oc1nc2c(c(=O)n(C)c(=O)n2C)n1C (stereo unspecified)", "growth", 62.7],
  ["COc1cccc(N2CCN(c3ncnc4cc[nH]c34)CC2)c1", "growth", 42.6],
  ["CCCCCCCCCCCCCCCC1=NCCN1", "growth", 0.615],
  ["O=P(O)(O)C(O)(Cc1cccnc1)P(=O)(O)O", "growth", 97.6],
  ["Cc1ccccc1NC(=O)c1sc2nc3c(cc2c1N)C(=O)CCC3", "growth", -12.9]
]}

====

Catalogue of compounds with associated growth
- Tested on: U251 CNS
- Assay comment: NCI-60 one-dose screen, 48 h (100 = growth as untreated, 0 = no growth, -100 = all killed)
- Cond: 10 µM unless noted
About 83,000 compounds went through this panel and 20% of them were active in at least one assay; those are over-represented in the sample as a whole.

{"columns": ["Compound", "Target of assay", "growth / %"],
 "data": [
  ["COc1ncnc2[nH]cc(CN3CCN(c4ccc(F)cc4)CC3)c12", "U251 CNS", 99.2],
  ["Clc1ccc(-c2cnc3nonc3n2)s1", "U251 CNS", 87.9],
  ["COC1(OC)C2(Cl)CCC1(Cl)C(Cl)=C2Cl", "U251 CNS", 97.8],
  ["CC(C)CC(=O)C(CCc1ccccn1)C(C)C (configuration not stated)", "U251 CNS", 107],
  ["COc1cc(CN2CCC(N3CCCC3=O)c3ccccc32)cc(OC)c1OC (configuration not stated)", "U251 CNS", 85.5],
  ["Cc1c2c(cc3c1[nH]c1ccccc13)C=NCC2", "U251 CNS", 92.5],
  ["CCOc1cc(/C=N\\NC(=O)C[N+](C)(C)C)ccc1O", "U251 CNS", 105],
  ["COc1nccc2c(Sc3ccccc3)nc(N)nc12", "U251 CNS", 110],
  ["COc1cc(/C=N/NC(=O)Cn2c(-c3ccc(C)o3)nc3ccccc32)ccc1OCc1ccccc1", "U251 CNS", 88.5],
  ["C=CCN(CC#N)CC=C", "U251 CNS", 100],
  ["Cc1nn(-c2cccc(Cl)c2)c(C)c1N=Nc1ccc(Br)cc1", "U251 CNS", 92.5],
  ["CS(=O)(=O)c1ccc(C(=O)N2N=C(c3ccccc3)CC2c2ccc3c(c2)OCO3)cc1 (configuration not stated)", "U251 CNS", 91.4]
]}
